B1: library; numbered along this chain (parent)
chain: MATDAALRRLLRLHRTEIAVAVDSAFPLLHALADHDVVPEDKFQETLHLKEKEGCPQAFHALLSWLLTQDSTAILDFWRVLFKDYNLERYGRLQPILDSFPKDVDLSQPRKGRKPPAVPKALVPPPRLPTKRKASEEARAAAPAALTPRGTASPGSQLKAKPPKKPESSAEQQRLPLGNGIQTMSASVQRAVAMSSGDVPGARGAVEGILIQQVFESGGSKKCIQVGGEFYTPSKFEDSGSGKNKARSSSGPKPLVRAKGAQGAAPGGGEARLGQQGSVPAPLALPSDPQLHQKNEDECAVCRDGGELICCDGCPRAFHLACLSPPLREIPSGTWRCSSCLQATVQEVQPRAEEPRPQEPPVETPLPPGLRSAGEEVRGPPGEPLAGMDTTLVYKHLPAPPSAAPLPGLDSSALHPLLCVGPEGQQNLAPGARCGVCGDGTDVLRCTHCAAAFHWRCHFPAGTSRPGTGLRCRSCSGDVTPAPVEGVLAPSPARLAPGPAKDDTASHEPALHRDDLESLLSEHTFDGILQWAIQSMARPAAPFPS

# Variants of: B1
# Experiment: AIRE transcriptional activation functional score (insulin promoter-GFP; nonsense median 0, synonymous median 1) (normalised score); higher = higher AIRE activity (more reporter activation)
# Measurement Setup: with insulin promoter-GFP reporter in HEK293
Value Kind: AIRE transcriptional activation functional score

# Mutation Annotation, Reading
data = [
    ("R132D", 0.252),
    ("A5V", 1.45),
    ("P492K", 0.595),
    ("P27Q", 0.267),
    ("V199S", 0.671),
    ("P325F", 1.01),
    ("R538W", 1.54),
    ("K114F", 0.817),
    ("H60N", 0.179),
    ("I96F", 0.253),
    ("P154L", 1.36),
    ("Q358G", 1.34),
    ("H454K", 0.0788),
    ("P163D", -0.123),
    ("A271W", 1.6),
    ("V484C", 0.29),
    ("A145Q", 1.12),
    ("K259R", 0.916),
    ("A25I", 0.925),
    ("S521A", 0.824),
    ("L97Q", -0.412),
    ("E136D", 0.541),
    ("G498R", 0.839),
    ("T72S", 0.667),
    ("S412A", 1.09),
    ("A532C", -0.268),
    ("P331V", 1.21),
    ("V301H", 1.56),
    ("A19P", -0.228),
    ("G477N", 1.12),
    ("E137M", 2.33),
    ("R113M", 0.565),
    ("A300W", 1.22),
    ("A343N", 0.601),
    ("G242I", -0.56),
    ("L385V", 0.955),
    ("F459Q", 1.14),
    ("T130C", 1.38),
    ("L470H", 0.541),
    ("D503H", 0.851),
    ("G374R", 1.31),
    ("R494G", 0.344),
    ("K165Y", 0.91),
    ("G112T", 1.31),
    ("D84Y", 0.473),
    ("G112P", 1.12),
    ("I74K", 0.384),
    ("S99R", 0.357),
    ("L417Y", 1.21),
    ("R203N", 0.0951),
    ("R513E", -0.344),
    ("L341A", 0.936),
    ("P266A", 1.01),
]
